PROTOCOL_SUMMARY: Confirmation Concentration-Response Assay for Identification of Small Molecule Antagonists of Stat Signaling Pathway
STATED_CONDITIONS: SIE-bla cells, IL-6 stimulated, beta-lactamase ratio, 5 h; series mostly up to 38.3 µM
Records with an inconclusive call do not appear. Active and inactive are the calls of the source. Calls follow the shape of the dose curve; as a rule, active = well fitted inhibition curve with a large enough effect in the signal ratio, with a control signal flat; inconclusive = small, poorly fitted or top-dose-only effect, or effect the other way; inactive = flat fitted curve, though single readings scatter; the % refers to the signal ratio.
Your answer must be one of the following: Y for active, N for inactive

Request: Outcome? Cn1c(NCc2ccccc2)nc2c1c(=O)n(Cc1ccc(Br)cc1)c(=O)n2C
Response: Y

###

PROTOCOL_SUMMARY: Confirmation Concentration-Response Assay for Identification of Small Molecule Antagonists of Stat Signaling Pathway
STATED_CONDITIONS: SIE-bla cells, IL-6 stimulated, beta-lactamase ratio, 5 h; series mostly up to 38.3 µM
Results filed as inconclusive are left out. Active and inactive are the calls of the source. Calls come from the whole dose curve; as a rule, active = well fitted inhibition curve with a large enough effect in the signal ratio, with a control signal flat; inconclusive = small, poorly fitted or top-dose-only effect, or effect the other way; inactive = flat fitted curve, though single readings scatter; the % refers to the signal ratio.
Your answer must be one of the following: active, inactive

Examples from the recorded data:
SMILES_ENTRY | GROUP_LABEL
CCCCSc1nc(N)c(C#N)c(-c2cccs2)c1C#N | active
COc1cccc2c1[C@H](CO)N1[C@H](C#N)[C@@H]3C[C@H](C(=O)O)[C@@H]([C@@H]1C2)N3C | active
NS(=O)(=O)c1ccc(N=Nc2cc3ccccc3c(C(=O)O)c2O)cc1 | active
CCC(=O)Nc1nc(C)c(Oc2ccccc2)c(=O)[nH]1 | inactive
COc1ccc(C[C@@H]2C(=O)N[C@H](C)C(=O)N(C)[C@@H]3Cc4ccc(cc4)Oc4cc(ccc4O)C[C@H](C(=O)N[C@@H](C)C(=O)N[C@H](C)C(=O)N2C)N(C)C3=O)cc1 | active

Request: Outcome? CCN(CC)CCNC(=O)c1cc(S(C)(=O)=O)ccc1OC
Response: inactive

###

PROTOCOL_SUMMARY: Confirmation Concentration-Response Assay for Identification of Small Molecule Antagonists of Stat Signaling Pathway
STATED_CONDITIONS: SIE-bla cells, IL-6 stimulated, beta-lactamase ratio, 5 h; series mostly up to 38.3 µM
Records with an inconclusive call do not appear. Activity calls are given as the source filed them. Calls come from the whole dose curve; as a rule, active = well fitted inhibition curve with a large enough effect in the signal ratio, with a control signal flat; inconclusive = small, poorly fitted or top-dose-only effect, or effect the other way; inactive = flat fitted curve, though single readings scatter; the % refers to the signal ratio.
Your answer must be one of the following: 1 for active, -1 for inactive

Examples from the recorded data:
SMILES_ENTRY | GROUP_LABEL
NCCSc1nc2ccccc2s1 | 1
CCOC(=O)c1[nH]c2cc3c(cc2c1NC(=O)CN1CCc2ccccc2C1)OCO3 | 1
CC1CCN(CC[S-])CC1.O.O.[Cl][Pt] | 1
O=C(O)CCc1c2ccc(=O)c(O)c-2oc2c(O)c(O)ccc12 | 1
C=C1C(=O)O[C@@H]2[C@@H]1CC/C(C)=C\CC[C@@]1(C)O[C@H]21 | 1
O=C(O)c1c(Br)c(Br)c(Br)c(Br)c1C1c2ccc(O)cc2Oc2cc(O)ccc21 | 1

API: the following record is the query input.
Request: Outcome? ClC(=Nc1cccc2ccccc12)N(c1ccccc1)c1ccccc1
Response: -1

Values were extracted from PubChem BioAssay AID922.
